target: Cystic fibrosis transmembrane conductance regulator (Homo sapiens, UniProt P13569, F508DEL); test: Corrector activity at CFTR F508del mutant (unknown origin) expressed in human CFBE41o- cells co-expressing halide-sensitive yellow fluorescent protein assessed as increase in iodide influx preincubated with compound for 24 hrs in presence of VX-809 followed by compound washout and measured after 30 mins of stimulation with forskolin/genistein by fluorescence microplate reader; assay type: cell-based
Sequence (P13569 as listed by the source): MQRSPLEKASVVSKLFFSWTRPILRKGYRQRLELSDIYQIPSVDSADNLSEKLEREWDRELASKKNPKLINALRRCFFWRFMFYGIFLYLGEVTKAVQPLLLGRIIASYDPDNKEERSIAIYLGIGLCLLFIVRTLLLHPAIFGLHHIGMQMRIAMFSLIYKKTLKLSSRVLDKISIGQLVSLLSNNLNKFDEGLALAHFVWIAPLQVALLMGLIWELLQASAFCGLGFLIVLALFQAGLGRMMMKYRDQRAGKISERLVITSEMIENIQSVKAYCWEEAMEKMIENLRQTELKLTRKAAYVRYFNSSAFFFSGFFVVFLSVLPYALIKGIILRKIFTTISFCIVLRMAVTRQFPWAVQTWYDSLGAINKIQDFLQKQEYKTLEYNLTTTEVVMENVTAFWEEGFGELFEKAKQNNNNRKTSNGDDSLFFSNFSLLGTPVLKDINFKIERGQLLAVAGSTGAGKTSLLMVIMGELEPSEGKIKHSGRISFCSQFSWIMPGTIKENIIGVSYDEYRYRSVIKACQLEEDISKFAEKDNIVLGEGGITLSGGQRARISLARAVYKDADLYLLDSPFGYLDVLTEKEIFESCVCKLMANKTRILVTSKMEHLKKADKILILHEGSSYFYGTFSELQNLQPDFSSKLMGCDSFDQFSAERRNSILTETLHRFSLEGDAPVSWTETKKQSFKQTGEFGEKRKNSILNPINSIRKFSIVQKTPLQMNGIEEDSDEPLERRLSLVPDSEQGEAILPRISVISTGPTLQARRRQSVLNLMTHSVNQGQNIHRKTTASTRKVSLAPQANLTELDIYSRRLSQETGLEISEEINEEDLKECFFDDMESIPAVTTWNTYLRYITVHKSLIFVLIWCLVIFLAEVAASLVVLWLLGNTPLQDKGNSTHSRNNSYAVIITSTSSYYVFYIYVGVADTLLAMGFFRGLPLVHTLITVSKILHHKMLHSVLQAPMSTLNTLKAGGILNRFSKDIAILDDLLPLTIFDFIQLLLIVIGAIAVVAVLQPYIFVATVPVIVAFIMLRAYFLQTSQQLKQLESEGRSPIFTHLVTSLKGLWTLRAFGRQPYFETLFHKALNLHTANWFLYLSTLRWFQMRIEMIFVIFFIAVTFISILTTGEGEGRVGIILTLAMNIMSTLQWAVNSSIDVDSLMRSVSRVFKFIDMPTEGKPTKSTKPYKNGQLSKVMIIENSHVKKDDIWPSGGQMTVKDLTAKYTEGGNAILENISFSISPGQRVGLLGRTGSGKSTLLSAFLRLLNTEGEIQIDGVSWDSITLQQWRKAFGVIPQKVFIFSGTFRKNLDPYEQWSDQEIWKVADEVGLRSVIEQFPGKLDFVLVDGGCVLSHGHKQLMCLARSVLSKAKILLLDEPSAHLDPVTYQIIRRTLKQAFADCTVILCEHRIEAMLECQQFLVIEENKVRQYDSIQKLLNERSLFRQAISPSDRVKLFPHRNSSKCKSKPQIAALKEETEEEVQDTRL
Measurement Kind: EC50 (nM)

Test Smiles | EC50 (nM)
CCOC(=O)c1c(Cl)c2c(n1Cc1cccc(C)c1)-c1nc(NS(=O)(=O)c3ccccc3)ncc1CC2 | 1880

1: CCOC(=O)c1c(Br)c2c(n1Cc1cccc(Br)c1)-c1nc(NS(=O)(=O)c3ccccc3)ncc1CC2
2: CCOC(=O)c1c(Br)c2c(n1Cc1cccc(C)c1)-c1[nH]c(=O)c(S(=O)(=O)c3ccccc3)cc1CC2
For 1 and 2 , which recorded EC50 is lower? // return label of chosen record
2
(2: 450 nM, 1: 2120 nM)
